target_system: Nicotinamide phosphoribosyltransferase (Homo sapiens, UniProt P43490)
Sequence (P43490 whole entry): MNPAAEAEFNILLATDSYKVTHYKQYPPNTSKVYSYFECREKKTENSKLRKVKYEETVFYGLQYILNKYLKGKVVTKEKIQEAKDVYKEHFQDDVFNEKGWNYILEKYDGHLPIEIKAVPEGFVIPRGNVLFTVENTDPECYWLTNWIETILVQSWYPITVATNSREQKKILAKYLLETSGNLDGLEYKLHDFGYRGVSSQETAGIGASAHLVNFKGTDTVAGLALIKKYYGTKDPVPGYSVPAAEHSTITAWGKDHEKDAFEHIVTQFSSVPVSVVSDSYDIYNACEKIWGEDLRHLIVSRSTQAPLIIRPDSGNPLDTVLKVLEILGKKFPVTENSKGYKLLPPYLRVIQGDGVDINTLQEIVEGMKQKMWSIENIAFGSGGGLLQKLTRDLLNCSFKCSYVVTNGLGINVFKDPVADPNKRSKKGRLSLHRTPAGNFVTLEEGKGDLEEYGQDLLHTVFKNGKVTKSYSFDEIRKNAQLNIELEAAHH
assay_protocol: NMN Fluorescence Biochemical Assay
So I've got a bunch of molecules here, and I need their EC50 values.
Numbers only, in µM.

| molecule | EC50 (µM) |
| --- | --- |
| CN(C1CCOC1)S(=O)(=O)c1ccc(NC(=O)OCc2ccc(Cl)cc2)cc1 (centres undefined) [US20240279215, Compound 342] | 11.5 |
| CN(Cc1ccccc1)S(=O)(=O)c1ccc(NC(=O)OCc2ccc(Cl)cc2)cc1 [US20240279215, Compound 335] | 7.94 |
| O=C(Nc1ccc(CN2C(=O)CC[C@@H]2c2cccnc2)cc1)OCc1ccc(Cl)cc1 [US20240279215, Compound 249] | 15.8 |

Please find the next molecule below.
Look up and report measured EC50 for this entry: O=C(Nc1ccc(CC2CCN(CC(F)F)CC2)cc1)OCc1ccncc1 [US20240279215, Compound 52]
5.38
